System Tested: CDK6/Cyclin D3 (Homo sapiens, UniProt Q00534)
Sequence (Q00534 whole entry): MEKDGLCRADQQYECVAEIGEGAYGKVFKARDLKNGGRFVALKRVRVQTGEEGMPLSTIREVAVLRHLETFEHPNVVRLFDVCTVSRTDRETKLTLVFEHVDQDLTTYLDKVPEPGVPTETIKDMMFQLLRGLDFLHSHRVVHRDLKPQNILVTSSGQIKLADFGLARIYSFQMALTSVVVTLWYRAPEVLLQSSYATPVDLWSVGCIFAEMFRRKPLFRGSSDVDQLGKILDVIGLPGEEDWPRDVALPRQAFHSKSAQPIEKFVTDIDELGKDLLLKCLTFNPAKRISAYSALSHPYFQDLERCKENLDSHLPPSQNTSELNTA
Sequence (P30281 whole entry partner): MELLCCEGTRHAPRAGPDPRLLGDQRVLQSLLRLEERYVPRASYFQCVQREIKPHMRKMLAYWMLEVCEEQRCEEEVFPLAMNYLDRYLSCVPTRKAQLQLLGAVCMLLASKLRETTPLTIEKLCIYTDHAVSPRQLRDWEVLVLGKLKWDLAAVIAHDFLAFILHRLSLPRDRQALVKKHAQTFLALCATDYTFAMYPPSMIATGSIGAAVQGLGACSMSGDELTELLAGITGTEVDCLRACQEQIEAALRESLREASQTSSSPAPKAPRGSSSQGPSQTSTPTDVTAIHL
Protocol Text: CDK6/Cyclin D3 kinase inhibition TR-FRET assay
Run Conditions: 1 mM ATP, 0.15 μM Rb (Ser780)-biotin substrate, read-out: CDK6D3 IC50
Just a reminder that ties go to FALSE: only IC50 strictly below 0.3 µM counts as TRUE.

Asked: Quick check: does CC(C)c1c(CN2[C@H](C)COC[C@H]2C)cnc2ccc(-c3nc(N[C@@H]4CCOC[C@@H]4O)ncc3F)cc12 [Example 9] have IC50 under 0.3 µM?
Given back: FALSE

Asked: Quick check: does CC(C)c1c(C(C)(C)O)cnc2c(F)cc(-c3nc(N[C@@H]4CCOC[C@@H]4O)ncc3Cl)cc12 [Example 17] have IC50 under 0.3 µM?
Given back: TRUE

Asked: Quick check: does CC(C)c1c(CNC2CC2)cnc2ccc(-c3nc(N[C@@H]4CCOC[C@@H]4O)ncc3F)cc12 [Example 10] have IC50 under 0.3 µM?
Given back: FALSE

Asked: Quick check: does CC(C)c1c(CN2[C@H](C)COC[C@@H]2C)cnc2c(F)cc(-c3nc(N[C@@H]4CCOC[C@@H]4O)ncc3F)cc12 [Example 13] have IC50 under 0.3 µM?
Given back: TRUE

Asked: Quick check: does CC(C)c1c(CN2[C@H](C)COC[C@@H]2C)cnc2c(F)cc(-c3nc(N[C@@H]4CCOC[C@@H]4O)ncc3Cl)cc12 [Example 21] have IC50 under 0.3 µM?
Given back: FALSE

Asked: Quick check: does CC(C)c1c(CNC2CC(F)(F)C2)cnc2c(F)cc(-c3nc(N[C@@H]4CCOC[C@@H]4O)ncc3F)cc12 [Example 14] have IC50 under 0.3 µM?
Given back: FALSE

Asked: Quick check: does CC(C)c1c(CN[C@H]2CCOC2)cnc2ccc(-c3nc(N[C@@H]4CCOC[C@@H]4O)ncc3F)cc12 [Example 11] have IC50 under 0.3 µM?
Given back: FALSE

Asked: Quick check: does CC(C)c1c(CN2CCOCC2)cnc2ccc(-c3nc(N[C@@H]4CCOC[C@@H]4O)ncc3F)cc12 [Example 2] have IC50 under 0.3 µM?
Given back: FALSE

Asked: Quick check: does CC(C)c1c(CN2[C@H](C)COC[C@@H]2C)cnc2ccc(-c3nc(N[C@@H]4CCOC[C@@H]4O)ncc3F)cc12 [Example 8] have IC50 under 0.3 µM?
Given back: FALSE

Asked: Quick check: does CC(C)c1c(CN[C@@H]2CCCOC2)cnc2c(F)cc(-c3nc(N[C@@H]4CCOC[C@@H]4O)ncc3F)cc12 [Example 15] have IC50 under 0.3 µM?
Given back: FALSE

Asked: Quick check: does CC(C)c1c(CN)cnc2ccc(-c3nc(N[C@@H]4CCOC[C@@H]4O)ncc3F)cc12 [Example 4] have IC50 under 0.3 µM?
Given back: TRUE

Asked: Quick check: does CC(C)c1c(CO)cnc2ccc(-c3nc(N[C@@H]4CCOC[C@@H]4O)ncc3F)cc12 [Example 1] have IC50 under 0.3 µM?
Given back: TRUE

Asked: Quick check: does CC(C)c1c(C2(O)CCCC2)cnc2c(F)cc(-c3nc(N[C@@H]4CCOC[C@@H]4O)ncc3F)cc12 [Example 16] have IC50 under 0.3 µM?
Given back: TRUE

Asked: Quick check: does CC(C)c1c(C2(O)CCOCC2)cnc2c(F)cc(-c3nc(N[C@@H]4CCOC[C@@H]4O)ncc3Cl)cc12 [Example 18] have IC50 under 0.3 µM?
Given back: TRUE

Asked: Quick check: does CC(C)c1c(CN2CC(O)C2)cnc2ccc(-c3nc(N[C@@H]4CCOC[C@@H]4O)ncc3F)cc12 [Example 5] have IC50 under 0.3 µM?
Given back: FALSE

Where these numbers come from: patent US20260242363A1
